Molecular target: Recombinant N-terminal GST tag full-length human HDAC8 (Homo sapiens)
Construct: Recombinant N-terminal GST tag full-length human HDAC8
Sequence (Q9BY41 1-377): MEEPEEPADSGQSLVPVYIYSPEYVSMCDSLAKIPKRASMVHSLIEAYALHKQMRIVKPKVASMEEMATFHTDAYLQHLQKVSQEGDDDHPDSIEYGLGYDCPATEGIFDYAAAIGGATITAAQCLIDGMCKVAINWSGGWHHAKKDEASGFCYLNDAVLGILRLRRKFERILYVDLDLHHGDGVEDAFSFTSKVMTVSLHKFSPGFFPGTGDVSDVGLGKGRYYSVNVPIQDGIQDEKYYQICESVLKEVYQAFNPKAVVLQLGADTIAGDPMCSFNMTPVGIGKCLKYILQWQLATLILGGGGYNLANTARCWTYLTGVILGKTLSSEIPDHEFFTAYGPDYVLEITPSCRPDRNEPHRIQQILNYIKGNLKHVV
Assay: HDAC8 probe binding assay, time resolved fluorescence (TRF) format
Conditions: compounds grouped by IC50 range (Table 2)
pIC50: −log10 of the molar value.
outcome measure: pIC50

# count of solved cases: 4
compound structure string	outcome measure	val
Cc1nn(C)c2ncc(CN3C(=O)COc4ccc(C(=O)NO)cc43)cc12	pIC50	≥ 7.60
O=C(NO)c1ccc2c(c1)N(Cc1nc3cccnc3n1Cc1ccccc1)C(=O)CO2	pIC50	7.00 to 7.60
O=C(NO)c1ccc2c(c1)N(Cc1cc(Cl)ccc1F)C(=O)CO2	pIC50	≥ 7.60
NC(=O)c1ccc(CN2C(=O)COc3ccc(C(=O)NO)cc32)cc1	pIC50	≥ 7.60

Now look at this one.
input: pIC50 for COc1cc(CN2C(=O)COc3ccc(C(=O)NO)cc32)ccc1Cl ?
output: ≥ 7.60
